Kindly state TGI for each of the entries shown.
- Tested on: SF-268 CNS
- experiment.summary: NCI tumour cell line growth inhibition, 48 h

Challenge: Could you please provide reported TGI for Cc1ccc(Cc2cc(N3CCN(c4cccc(Cl)c4)CC3)nnc2C)cc1 ? Thanks!
Response given: > 100 µM

Challenge: Could you please provide reported TGI for CC1=NN(C(=O)Cc2ccccc2)C(=O)/C1=C\c1ccc([N+](=O)[O-])cc1 ? Thanks!
Response given: > 100 µM

Challenge: Could you please provide reported TGI for CC1(C)CC(=O)C=C(/C=C/Sc2c(Cl)c(Cl)nc(Cl)c2Cl)C1 ? Thanks!
Response given: 32.4 µM

Challenge: Could you please provide reported TGI for N#CC(C#N)=NNc1ccc2cn[nH]c2c1 ? Thanks!
Response given: > 100 µM

Challenge: Could you please provide reported TGI for CS(=O)(=O)N1CCC(n2c(=O)c(Oc3ccc(F)cc3F)cc3cnc(NC4CCOCC4)nc32)CC1 ? Thanks!
Response given: > 25 µM

Challenge: Could you please provide reported TGI for COc1ccc2c(c1)CC[C@@H]1C2CC[C@]2(C)C(=O)N(CCN(C)C)C(=O)CC12 (stereo not given in full) ? Thanks!
Response given: > 100 µM

Challenge: Could you please provide reported TGI for CC(=O)OCC12CN(C#N)C3C4COC(CC41)C1(C(=O)N(C)c4ccccc41)C32 (stereo not given) ? Thanks!
Response given: > 100 µM

Challenge: Could you please provide reported TGI for COc1ccc2nc3c([N+](=O)[O-])ccc(NCCN(C)C)c3c(N)c2c1 ? Thanks!
Response given: 3.12 µM

Challenge: Could you please provide reported TGI for COc1cccc2c1NC(=O)Cc1c-2[nH]c2ccccc12 ? Thanks!
Response given: > 100 µM

Challenge: Could you please provide reported TGI for COc1cc2c(cc1OC)C(C#N)N(C(=O)c1ccccc1)C=C2OC(=O)c1ccccc1 (stereo not given) ? Thanks!
Response given: 86 µM

Challenge: Could you please provide reported TGI for COc1cccc2c1C(=O)c1c(O)c3c(c(O)c1C2=O)C[C@@](O)(C(C)=O)CC3S(=O)(=O)O (stereo not given in full) ? Thanks!
Response given: > 100 µM

Challenge: Could you please provide reported TGI for Cn1c(-c2ccc[se]2)ccc1-c1ccc(C=O)[se]1 ? Thanks!
Response given: 59.1 µM

Challenge: Could you please provide reported TGI for O=c1c2c3c(sc2nc2n1N=CN(c1ccccc1)C2)CCCC3 ? Thanks!
Response given: > 100 µM

Challenge: Could you please provide reported TGI for Cc1ccc(/C=C/C(=O)Oc2ccc(/C=C3\CCC/C(=C\c4ccc(OC(=O)/C=C/c5ccc(C)cc5)cc4)C3=O)cc2)cc1 ? Thanks!
Response given: > 100 µM

Challenge: Could you please provide reported TGI for O=C(CN1CCCC1=O)CS(=O)(=O)c1ccccc1 ? Thanks!
Response given: > 100 µM

Challenge: Could you please provide reported TGI for CSc1ncc2c(n1)-c1ccccc1OC2N1CCOCC1 (stereo not given) ? Thanks!
Response given: > 100 µM

Challenge: Could you please provide reported TGI for CC(=O)C(=O)NC1/C=C(C)\C=C/C(O)C/C=C(C)\C=C/C(O)CC2OC(=O)C1(C)C(=O)C2C (stereo not given) ? Thanks!
Response given: > 100 µM

Challenge: Could you please provide reported TGI for O=C1/C(=C/c2ccc(O)cc2)CCCC1CN1CCCCC1 (stereo not given) ? Thanks!
Response given: 11.9 µM

Challenge: Could you please provide reported TGI for COc1ccc2c(c1)Oc1cc(O)ccc1[C@H]2c1ccccc1C(=O)NC(C)c1ccccc1 (stereo not given in full) ? Thanks!
Response given: 45.8 µM

Challenge: Could you please provide reported TGI for CN1CCN(C(=O)[C@@]2(C)CC[C@]3(C)CC[C@]4(C)C(=CC[C@@H]5[C@@]6(C)CCC(=O)NC(C)(C)[C@@H]6CC[C@]54C)[C@@H]3C2)CC1 ? Thanks!
Response given: 14.4 µM
